Biological target: human 5-HT6 receptor (Homo sapiens, UniProt P50406)
Sequence (P50406 whole entry): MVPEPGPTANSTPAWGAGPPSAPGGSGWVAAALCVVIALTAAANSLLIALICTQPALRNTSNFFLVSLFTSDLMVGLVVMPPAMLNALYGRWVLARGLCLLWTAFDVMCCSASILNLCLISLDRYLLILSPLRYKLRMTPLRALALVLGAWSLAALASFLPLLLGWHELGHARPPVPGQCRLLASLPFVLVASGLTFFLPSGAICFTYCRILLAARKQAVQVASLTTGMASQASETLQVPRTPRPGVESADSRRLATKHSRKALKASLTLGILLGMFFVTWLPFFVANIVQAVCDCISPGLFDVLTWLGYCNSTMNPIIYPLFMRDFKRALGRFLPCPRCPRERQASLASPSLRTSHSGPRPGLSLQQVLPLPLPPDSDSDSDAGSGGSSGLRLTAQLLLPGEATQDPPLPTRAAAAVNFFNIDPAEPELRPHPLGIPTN
Experiment: Binding assay for human 5-HT6 receptor ([3H]LSD radioligand)
Settings: human recombinant receptor, [3H]LSD 1.5 nM, 60 minutes at 37° C.; read-out: Radiogland binding data at 5-HT6 R (h) Ki
pKi: −log10 of the molar value.
Use Yes when the recorded pKi is no lower than 8; use No when it is lower.

- CN1CCN(Cc2cccc3c2c(Br)cn3S(=O)(=O)c2ccccc2)CC1: No
- CC(C)c1ccc(S(=O)(=O)n2cc(Br)c3c(CN4CCN(C)CC4)cccc32)cc1: No
- Cc1ccc(S(=O)(=O)n2cc(Cl)c3c(CN4CCN(C)CC4)cccc32)cc1: No
- CN1CCN(Cc2cccc3c2ccn3S(=O)(=O)c2cccc3ccccc23)CC1: Yes
- CN1CCN(Cc2cccc3c2c(Br)cn3S(=O)(=O)c2cccc3ccccc23)CC1: No

Query: Answer whether pKi of CN1CCN(Cc2cccc3c2c(Cl)cn3S(=O)(=O)c2cccc(Cl)c2)CC1 is greater than or equal to 8.
Result: No

Query: Entry to check: CN1CCN(Cc2cccc3c2c(Cl)cn3S(=O)(=O)c2ccccc2Br)CC1
Result: No

Query: CN1CCN(Cc2cccc3c2ccn3S(=O)(=O)c2ccc(Br)cc2)CC1 , same question.
Result: No

Query: Now the molecule CN1CCN(Cc2cccc3c2c(Cl)cn3S(=O)(=O)c2ccccc2)CC1
Result: No

Query: One more molecule: CN1CCN(Cc2cccc3c2ccn3S(=O)(=O)c2ccccc2Br)CC1
Result: Yes

---

Quick reference: Ki of the listed items.
Target: human 5-HT6 receptor (Homo sapiens)
Assay: Binding assay for human 5-HT6 receptor ([3H]LSD radioligand)
Conditions: human recombinant receptor, [3H]LSD 1.5 nM, 60 minutes at 37° C.; read-out: Radiogland binding data at 5-HT6 R (h) Ki
Counter-ions that a name gives are not always drawn.
Answer as a quantity: numeral, then unit.

• CC(C)c1ccc(S(=O)(=O)n2ccc3c(CN4CCN(C)CC4)cccc32)cc1 = 11.1 nM
• CN1CCN(Cc2cccc3c2ccn3S(=O)(=O)c2ccc(F)cc2)CC1 = 9.89 nM
• CN1CCN(Cc2cccc3c2ccn3S(=O)(=O)c2cccc(Cl)c2)CC1 = 13.1 nM
• CN1CCN(Cc2cccc3c2ccn3S(=O)(=O)c2ccccc2)CC1 = 6.51 nM
• O=S(=O)(c1ccccc1)n1ccc2c(CN3CCNCC3)cccc21 [Compound 37, dihydrochloride] = 7.84 nM

Query: What Ki value was documented for this compound, COc1ccc(S(=O)(=O)n2ccc3c(CN4CCN(C)CC4)cccc32)cc1 ?
Result: 29.1 nM

---

Molecular target: human 5-HT6 receptor (Homo sapiens)
Assay: Binding assay for human 5-HT6 receptor ([3H]LSD radioligand)
Conditions: human recombinant receptor, [3H]LSD 1.5 nM, 60 minutes at 37° C.; read-out: Radiogland binding data at 5-HT6 R (h) Ki
Where a name gives a salt, the structure may show the parent alone.
Known Ki of a selection of compounds
Return type: number; implicit unit µM.

Solved cases (3 shown):
- CC(C)c1ccc(S(=O)(=O)n2cc(Cl)c3c(CN4CCN(C)CC4)cccc32)cc1 [Compound 28]: 0.0997
- Cc1ccc(S(=O)(=O)n2ccc3c(CN4CCNCC4)cccc32)cc1 [Compound 38, dihydrochloride]: 0.0107
- O=S(=O)(c1ccccc1Br)n1ccc2c(CN3CCNCC3)cccc21 [Compound 36, dihydrochloride]: 0.00094

Query: Endpoint output: Ki of CN1CCN(Cc2cccc3c2c(Cl)cn3S(=O)(=O)c2cccc3ccccc23)CC1 [Compound 34] . Value?
Result: 0.165
